Kindly find below IC50 information for Glycylpeptide N-tetradecanoyltransferase 1 (Homo sapiens) taken from the literature.

Here's what some known entries look like.
{"molecule-smiles": "COC(=O)/C=C\\C(=O)Nc1ccc(C)cc1", "measured-on": "Glycylpeptide N-tetradecanoyltransferase 1 (Homo sapiens)", "test-value": "> 10000 µM"}
{"molecule-smiles": "O=S(=O)(Nc1c(N2CCCC2)ccc2ncccc12)c1ccc(Br)cc1", "measured-on": "Glycylpeptide N-tetradecanoyltransferase 1 (Homo sapiens)", "test-value": "41 µM"}
{"molecule-smiles": "CN(C)CCCN(C)c1nc(N(C)CCC#N)c2cc(-c3ccccc3)ccc2n1", "measured-on": "Glycylpeptide N-tetradecanoyltransferase 1 (Homo sapiens)", "test-value": "> 100 µM"}
{"molecule-smiles": "COc1ccc(-c2ccc3nc(N(C)CCCN(C)C)nc(N(C)CCC#N)c3c2)c(C)c1", "measured-on": "Glycylpeptide N-tetradecanoyltransferase 1 (Homo sapiens)", "test-value": "> 100 µM"}
{"molecule-smiles": "CC(C)Cc1ccc2ncccc2c1NS(=O)(=O)c1ccc(Br)cc1", "measured-on": "Glycylpeptide N-tetradecanoyltransferase 1 (Homo sapiens)", "test-value": "> 100 µM"}

Exam item: Under Glycylpeptide N-tetradecanoyltransferase 1 (Homo sapiens): IC50 value of "COC(=O)c1ccc(N2CCCC2)c(NS(=O)(=O)c2ccc(Br)cc2)c1" ?
Marked response: > 100 µM

Exam item: Under Glycylpeptide N-tetradecanoyltransferase 1 (Homo sapiens): IC50 value of "CC(C)Cc1ccc2nn(C)cc2c1NS(=O)(=O)c1ccc(Br)cc1" ?
Marked response: > 100 µM

Exam item: Under Glycylpeptide N-tetradecanoyltransferase 1 (Homo sapiens): IC50 value of "CCN(C)c1nc(N(C)CCCN(C)C)nc2ccc(S(=O)(=O)Nc3c(C)nn(C)c3C)cc12" ?
Marked response: 1.1 µM

Exam item: Under Glycylpeptide N-tetradecanoyltransferase 1 (Homo sapiens): IC50 value of "Cn1cc2c(NS(=O)(=O)c3ccc(Br)cc3)cccc2n1" ?
Marked response: > 100 µM

Exam item: Under Glycylpeptide N-tetradecanoyltransferase 1 (Homo sapiens): IC50 value of "COC(=O)c1ccc(N2CCCCCC2)c(NS(=O)(=O)c2ccc(OC)cc2)c1" ?
Marked response: > 100 µM
